List of melting point values.

# melting point of CN(C(=O)c1ccc2c(c1)nc(NC(=O)c1cccs1)n2CCCC(=O)O)C1CCCCC1 = 256 to 258 °C

# melting point of COc1ccc2cc(C#N)ccc2c1Br = 177 to 178 °C

# melting point of CCOC(=O)c1cnc2sc3c(n12)CCCCCC3 = 79 to 81 °C

# melting point of CCCCCC(C)C(C)c1cc(O)c2c(c1)oc(=O)c1ccncc12 (configuration not stated) = 122 to 123 °C

# melting point of Cn1nc(Sc2cc(C(F)(F)F)ccc2C#N)n(C)c1=O = 113 °C

# melting point of CCCCC(CC)C(=O)Nc1ccc2ccn(Cc3ccc(C(=O)O)cc3OC)c2c1 (configuration not stated) = 234 to 235 °C

# melting point of CNC1=Nc2ccc(Cl)cc2C(c2ccccc2F)=NC1 = 204 to 206 °C

# melting point of CC(=O)Oc1cnccc1CCCOc1cccnc1Oc1cccc(Br)c1 = 110 to 112 °C

# melting point of CCCNC1Cc2ccc(C3=NNC(=O)CC3)cc2C1 (configuration not stated) = 137 to 138 °C

# melting point of CCS(=O)(=O)Nc1cc(Cc2c[nH]cn2)ccc1Cl = 159 to 160 °C

# melting point of C[C@H](NC(=O)C(CSC(=O)c1ccccc1)SC(=O)c1ccccc1)C(=O)N1CCC[C@H]1C(=O)O (some centres not stated) = 185 to 186 °C

# melting point of O=[N+]([O-])c1ccc(F)cc1Br = 42 °C

# melting point of Nc1noc(-c2ccc(CN3CCCCCC3)s2)n1 = 135 to 136 °C

# melting point of CCC(C)Oc1ccc(OCCNC(=O)C2CC2)cc1 (configuration not stated) = 65 to 68 °C

# melting point of CCCOC(=O)CCC(=O)c1ccc(-c2ccccc2F)cc1 = 53 to 54 °C

# melting point of COc1ccc(N2CCN(C[C@H]3COc4ccc5nc(C)ccc5c4O3)CC2)cc1 = 164 to 165 °C

# melting point of CCOC(=O)[C@H](Cc1ccc(OC)cc1)NC(=O)C1(NC(=O)OC(C)(C)C)CCCC1 = 143 to 146 °C

# melting point of Nc1ncc(C(=O)Cl)cc1Cl = > 250 °C
